Value source: patent US20150086555A1

target: recombinant homotrimeric HA A/California/4/09 H1N1 (Influenza A virus A/California/04/2009(H1N1)); assay: protein microarray, purified IgG, trimeric HA; conditions: remark: other sources report otherwise
readout: Trimeric HA Binding: RLU (RLU)
Report as a plain number; the unit RLU is understood.

GET /values?readout=Trimeric HA Binding: RLU&item= TCN-526 (5084_C17) (antibody, V domains shown) VH: EVLMVESGGGLVQPGGSVRLSCVASGFSFSSHWMTWVRQAPGKGLEWVANIEDDGGDKYYVDSVKGRFIISRDNAKNSVYLQMNSLRAEDTAVYFCARGSGSSDRSDYDPHYYYYLDVWGKGATVTVSS VL: DIQLTQSPSSLSASVGDRVTITCRASQSISRYLNWYQQKPGKAPKLLLFAASTLLDGVPSRFSGSGSGTDFTLTISSLQPEDFATYYCQRNHSPSWTFGQGTRVEIK
620

What value of measured Trimeric HA Binding: RLU is listed for TCN-535 (5246_P19) (antibody, V domains shown) VH: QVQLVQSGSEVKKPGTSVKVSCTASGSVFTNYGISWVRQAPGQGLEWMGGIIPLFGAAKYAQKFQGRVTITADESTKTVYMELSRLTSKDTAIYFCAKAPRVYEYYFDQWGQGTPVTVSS VL: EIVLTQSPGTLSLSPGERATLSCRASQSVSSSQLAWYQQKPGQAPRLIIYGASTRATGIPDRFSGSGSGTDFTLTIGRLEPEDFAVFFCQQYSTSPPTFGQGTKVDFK ?
17200

Reported Trimeric HA Binding: RLU for TCN-545 (5082_I15) (antibody, V domains shown) VH: QVQLQQWGAGLLKPSETLSLSCAVFGGSFSDYYWTWIRQPPGKGLEWIGEIKHSGRTNYNPSLESRVTISVDTSKNQFSLKLSSVTAADTAIYYCARGTDPDTEGYCRSGSCSAFDFWGQGTLVTVSS VL: EIVLTQSPGTLSLSPGERATLSCRASHFVNYRSLAWYQQTPGQVPRLLIYGASTRATGIPDRFSGSGSGTDFTLTISRLEPEDFAVYFCQQYGGSPRYTFGQGTRLEIK : what is it?
672

Given the binder TCN-552 (5249_I23) (antibody, V domains shown) VH: QVQVVQSGAEVKKPGSSVRVSCQASGGTFMNYAIIWVRRAPGQGLEWMGGIIPVFPTPNYAQMFQGRVTISTDESRSTSFLELTNLRYEDTAVYYCARRIYHGGNSGFDFWGQGTLVTVSS VL: EIVLTQSPATLSLSPGERATLSCRASQSVGNYLAWYQQKPGQAPRLLIYDSSNRAPGIPARFSGSGSGTDFTLTISSLAPEDFAVYYCQQRSKWPPMYSFGHGTKLEIK , what is its reported Trimeric HA Binding: RLU?
23900

Fill in: Trimeric HA Binding: RLU of TCN-553 (5261_C18) (antibody, V domains shown) VH: QVQVVQSGTEVKKPGSSVKVSCQTSGGRFMSYAITWVRQAPGQGLEWMGGIVPVFGTANYAQKFQGRVTITTDDSTRTAYMELSSLRSEDTAVYYCGFRYGSGYGFDSWGQGTLVTVSS VL: EIVLTQSPGTLSLSPGERATLSCRASQSVSSSYLAWYQKKPGQAPRLLIYGASTRATGIPDRFTGSGSGTDFTLSISRLEPEDFAVYYCQHFGTSVFTFGGGTKVEIK is ___
25100

For the binder TCN-527 (5086_C06) (antibody, V domains shown) VH: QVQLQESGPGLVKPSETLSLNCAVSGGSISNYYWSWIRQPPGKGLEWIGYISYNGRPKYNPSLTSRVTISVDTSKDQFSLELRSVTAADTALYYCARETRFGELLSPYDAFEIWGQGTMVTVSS VL: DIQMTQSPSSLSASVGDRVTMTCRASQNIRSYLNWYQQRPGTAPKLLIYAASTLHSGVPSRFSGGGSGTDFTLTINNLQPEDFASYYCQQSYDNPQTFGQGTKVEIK , what Trimeric HA Binding: RLU is on record?
18600

Given TCN-539 (5056_A08) (antibody, V domains shown) VH: QVQLVESGGGVVQPGRSLRLSCAASEITFITYAMHWVRQAPGKGLEWVALISDDGSNKFYADSVKGRFTISRDNSKNTLYLQMNSLRAEDTAAYYCAREGVYFDSGTYRGYFDYWGQETLVTVSS VL: EIVLTQSPATLSLSPGERATLSCRASQSVSSYLAWYQQKPGQAPRLLIYDASNRATGIPARFSGSGSGTDFTLTISSLEPEDFAVYYCQQRSHWPPITFGQGTRLEIK , state its recorded Trimeric HA Binding: RLU.
129

Reported Trimeric HA Binding: RLU for TCN-542 (5079_A16) (antibody, V domains shown) VH: QVQLQESGPGLVKPSQTLSLTCTVSGGSISSGNYYWNWVRQHPGKGLEWIGYIYYRGSTFYNPSLKSRVTISIDTSKNQFSLRLSSVTAADTAVYYCAKDTRSSLDNYQYGMDVWGQGTTVTVSS VL: QTVVTQEPSLTVSPGGTVTLTCASSTGAVTSSYFPNWFQQKPGQAPRPLIYSTTIRHSWTPARFSGSLLGGKAALTLSGVQPEDEADYYCLLYSGGDPVAFGGGTKLTVL : what is it?
238

I would be grateful if you could share the reported Trimeric HA Binding: RLU for TCN-557 (5081_A04) (antibody, V domains shown) VH: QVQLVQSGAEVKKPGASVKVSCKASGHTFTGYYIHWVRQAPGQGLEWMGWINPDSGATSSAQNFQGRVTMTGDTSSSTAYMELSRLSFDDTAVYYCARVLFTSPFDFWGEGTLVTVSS VL: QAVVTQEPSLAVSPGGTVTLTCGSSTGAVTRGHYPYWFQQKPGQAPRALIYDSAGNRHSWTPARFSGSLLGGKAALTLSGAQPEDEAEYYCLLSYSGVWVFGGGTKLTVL .
1170

Any idea what Trimeric HA Binding: RLU was measured for TCN-530 (5248_H10a) (antibody, V domains shown) VH: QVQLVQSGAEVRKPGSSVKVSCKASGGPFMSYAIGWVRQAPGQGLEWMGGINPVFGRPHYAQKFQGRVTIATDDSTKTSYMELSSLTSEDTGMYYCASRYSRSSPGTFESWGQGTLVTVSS VL: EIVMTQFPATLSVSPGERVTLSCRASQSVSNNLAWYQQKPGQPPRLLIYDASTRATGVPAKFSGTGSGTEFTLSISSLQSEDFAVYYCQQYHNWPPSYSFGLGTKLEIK ?
14200
